TEST_SYSTEM: human glucagon receptor (human, UniProt P47871 26-477)
ASSAY_INFO: cell-based or functional assay
Starred links: 1 amine or outer side, 2 acyl side, 3 side chain; linkers in the order of their positions; H or OH if unused. Non-standard residues stand in square brackets, D forms with d. No end group written: not given here. ACPP = 2-amino-5-(3-chlorophenyl)pentanoic acid, O=C([C@H](CCCc1cccc(Cl)c1)N[*:1])[*:2]; Bip(2'-Et-4'-OMe) = CCc1cc(OC)ccc1-c1ccc(C[C@H](N)C(=O)O)cc1; 2F‑APPA = 2-amino-5-(2-fluorophenyl)pentanoic acid; αMePhe(2-F) = C[C@](N)(Cc1ccccc1F)C(=O)O; aThr = C[C@H](O)[C@H](N)C(=O)O; NMeAPPA = not defined here; CNB = not defined here; Aib = CC(C)(N)C(=O)O
EXPERIMENTAL_READOUT: inhibition of cAMP production, 1 nM

BINDER	EXPERIMENTAL_READOUT	RESULT
HSQGTFTSD[Bip(2'-Et-4'-OMe)][2F‑APPA] [Seq. ID. No. 45: HSQGTFTSD-Bip(OMe)-(2F-APPA)]	inhibition of cAMP production, 1 nM	15 pmol/ml/µg prt
H[Aib][CNB]GTFTSD[Bip(2'-Et-4'-OMe)][ACPP] (reading uncertain) [Seq. ID. No. 31: H-Aib-(CNB)-GTFTSD-Bip(OMe)-(ACPP)]	inhibition of cAMP production, 1 nM	6 pmol/ml/µg prt
H[Aib][CNB]G[aThr][αMePhe(2-F)][aThr]SD[Bip(2'-Et-4'-OMe)][2F‑APPA] (reading uncertain; also: thioamide bond between residues 10 and 11) [Seq. ID. No. 168: H-Aib-(CNB)-G-T(allo)-(α-Me-2F-Phe)-T(allo)-SD-Bip(OMe)-(C═S)-(2F-APPA)]	inhibition of cAMP production, 1 nM	21 pmol/ml/µg prt

Reported inhibition of cAMP production, 1 nM for H[Aib][CNB]G[aThr][αMePhe(2-F)]TSD[Bip(2'-Et-4'-OMe)][2F‑APPA] (reading uncertain) [Seq. ID. No. 112: H-Aib-(CNB)-G-T(allo)-(α-Me-2F-Phe)-TSD-Bip(OMe)-(2F-APPA)] : what is it?
6 pmol/ml/µg prt

Proceed to H[Aib][CNB]G[aThr][αMePhe(2-F)][aThr]SD[Bip(2'-Et-4'-OMe)][NMeAPPA] (reading uncertain) [Seq. ID. No. 130: H-Aib-(CNB)-G-T(allo)-(α-Me-2F-Phe)-T(allo)-SD-Bip(OMe)-((NMe)(APPA))]
5 pmol/ml/µg prt
